Cited source for all entries: ChEMBL document CHEMBL1157539

system: HepG2; assay: GSK_TCMDC: Percent inhibition of human HepG2 cell line. Test compounds present at 10uM.; assay type: functional
measurementKind: Inhibition
State the result as a value with its unit after it.

compound	Inhibition
CC(=O)Nc1ccc(CN2CCC(N(C)c3cc(NC(=O)c4ccc(F)cc4)ccn3)CC2)cc1.O=C(O)C(F)(F)F	0%
O=C(/C=C/c1ccccc1Cl)NC1CCC(CN2C3CCC2CC(c2c[nH]c4ccccc24)C3)CC1 (centres undefined)	56%
CCCCCCC(C)(C)c1cc(O)c2c(c1)OC(C)(C)c1ccncc1-2.Cl	4%

[in] Tell me measured Inhibition for CSc1ccc(C[C@@H](C)NC[C@H](O)c2cccc(Cl)c2)cc1.Cl please.
[out] 8%

[in] Tell me measured Inhibition for CCCCCc1cc(O)c2c(c1)OC(C)(C)CC2C1=CCN(Cc2ccccc2)CC1 (centres undefined) please.
[out] 15%

[in] Tell me measured Inhibition for COC(=O)c1ccc(CC(C)NCC(O)c2cccc(OCc3ccccc3)c2)cc1.Cl (centres undefined) please.
[out] 11%

[in] Tell me measured Inhibition for CC[C@H]1CN2CC[C@H]1C[C@H]2[C@H](O)c1cc(-c2ccccc2C)nc2ccc(OC)cc12.Cl please.
[out] 16%

[in] Tell me measured Inhibition for COc1ccc(CC(C)NCC(O)c2cccc(C(F)(F)F)c2)cc1 (centres undefined) please.
[out] 0%

[in] Tell me measured Inhibition for O=C(C=Cc1ccc(Br)cc1)NC1CCC(CN2CCC(c3c[nH]c4ccccc34)CC2)CC1 (centres undefined) please.
[out] 71%

====

test system: HepG2; assay: GSK_TCMDC: Percent inhibition of human HepG2 cell line. Test compounds present at 10uM.; type: functional
Threshold check on Inhibition: strictly below 9% is label 1; on or above 9% is label 0.

Completed entries (count: 6):
compound	qualitativeLabel
CCCCCC(C)C(C)c1cc(O)c2c(c1)OC1(C(C)C)CC(O)C(C)C2C1 (centres undefined)	label 1
O=C(NC1CCC(CN2CCC(c3c[nH]c4ccccc34)CC2)CC1)NC12CC3CC(CC(C3)C1)C2 (centres undefined)	label 0
CO/C=C(/C(=O)OC)c1ccccc1Oc1cc(Oc2ccccc2C#N)ncn1	label 1
Cc1cc2cc(CNCCc3ccccc3Br)ccc2nc1N.Cl	label 0
C=C[C@H]1CN2CC[C@@H]1C[C@H]2[C@H](O)c1cc(-c2ccc(F)cc2)nc2ccc(OC)cc12.Cl	label 1
O=S(=O)(NC1CCC(CN2CCC(c3c[nH]c4ccccc34)CC2)CC1)c1ccc(Cl)c(Cl)c1 (centres undefined)	label 0

[in] # TODO verify Inhibition < 9% strictly for this compound: C[C@H](Cc1ccc(OCCCCCCOc2ccccc2)cc1)NC[C@@H](O)c1cc(Br)no1.Cl
[out] label 0

[in] # TODO verify Inhibition < 9% strictly for this compound: Cc1cc(NC(=O)[C@H](CC(C)C)Nc2ccc(C#N)c3ccccc23)ccc1F.O=C(O)C(F)(F)F
[out] label 0

[in] # TODO verify Inhibition < 9% strictly for this compound: C#CCN1CCC2=C(C1)c1c(O)cc(C(C)CCCc3ccc(F)cc3)cc1OC2(C)C (centres undefined)
[out] label 1

[in] # TODO verify Inhibition < 9% strictly for this compound: CC(NC(C)(C)C)C(O)c1ccc(Cl)c(C(F)(F)F)c1.Cl (centres undefined)
[out] label 1

[in] # TODO verify Inhibition < 9% strictly for this compound: CC(Cc1ccc(NC(=O)[C@H](C)NCCc2cccc(Cl)c2)cc1)NCCc1cccc(Cl)c1.Cl (some centres undefined)
[out] label 0

[in] # TODO verify Inhibition < 9% strictly for this compound: CC(=O)N(Cc1ccccc1-c1cccc(CNCCc2ccccc2)c1)C1CCN(Cc2ccccc2)CC1.O=C(O)C(F)(F)F
[out] label 0

[in] # TODO verify Inhibition < 9% strictly for this compound: Cc1nc(C)c(-c2ccc(Oc3ccc(OC(F)(F)F)cc3)cc2)c(OC(=O)N(CCNC(C)C)C(C)C)c1Br.Cl
[out] label 0

====

test system: Plasmodium falciparum; test: GSK_TCMDC: Inhibition of Plasmodium falciparum Dd2 in whole red blood cells, using parasite LDH activity as an index of growth. Test compounds present at 2uM; format: functional
measurementKind: Inhibition (%)
Just the number please, in %, no unit attached.

Answered examples (4):
CC[C@H]1CN2CCc3cc(OC)c(OC)cc3[C@@H]2C[C@@H]1C[C@H]1NCCc2c1cc(OC)c(OC)c2Br 97
C[C@H](Cc1ccc(OCCCCCCOc2ccccc2)cc1)NC[C@H](O)c1cccc(Cl)c1.Cl 99
Cc1ccc(C(=O)Nc2ccnc(N(C)C3CCN(Cc4cccc(O)c4)CC3)c2)cn1.O=C(O)C(F)(F)F 1
CN1CC=C(C=Cc2c[nH]c3ccccc23)CC1 64

Lab note: next compound to report on.
[in] Tell me measured Inhibition for O=C(NCc1ccccc1)c1nn(CCCN2CCC3(CC2)C(=O)NCN3c2ccccc2)cc1-c1ccc(Cl)c(Cl)c1 please.
[out] 21

====

test system: Plasmodium falciparum; experiment: GSK_TCMDC: Inhibition of Plasmodium falciparum Dd2 in whole red blood cells, using parasite LDH activity as an index of growth. Test compounds present at 2uM; format: functional
measurementKind: Inhibition (%)
Just the number please, in %, no unit attached.

Answered examples (3):
compound	unitOfMeasurement	valueObserved
COc1ccc(N(c2nc(-c3cc(Cl)ccc3Cl)cs2)C2CCNCC2)cc1.O=C(O)C(F)(F)F	%	4
CN1C2CCC1c1cc(NC(=O)c3cc(-c4ccc(Cl)cc4)cs3)ccc12.O=C(O)C(F)(F)F (configuration not stated)	%	35
Cc1ccc(CC(C)NCC(O)c2cccc(C(F)(F)F)c2)cc1.O=C(O)/C=C/C(=O)O (configuration not stated)	%	54

[in] Tell me measured Inhibition for COc1cc(C=CC(=O)NC2CCC(CN3CCC(c4c[nH]c5ccccc45)CC3)CC2)cc(OC)c1 (configuration not stated) please.
[out] 90

[in] Tell me measured Inhibition for CN(c1ccnc(Nc2ccc(CS(C)(=O)=O)cc2)n1)C1CCN(Cc2ccccc2)CC1 please.
[out] 9

[in] Tell me measured Inhibition for CCCCc1ccc2[nH]cc(C3=CCN(C)CC3)c2c1Br please.
[out] 94

[in] Tell me measured Inhibition for COCCNCc1cccc(-c2ccc(CN(C(=O)NC3CCCCC3)C3CCN(Cc4ccccc4)CC3)cc2)c1.O=C(O)C(F)(F)F please.
[out] 31

[in] Tell me measured Inhibition for CCCCCSc1cc(O)c(C(CNC)C(C)C)cc1OC.O=C(O)/C=C\C(=O)O (configuration not stated) please.
[out] 99

====

test system: Plasmodium falciparum; assay: GSK_TCMDC: Inhibition of Plasmodium falciparum Dd2 in whole red blood cells, using parasite LDH activity as an index of growth. Test compounds present at 2uM; type: functional
Below is a list of entries, each paired with its recorded Inhibition value.

Answered examples (3):
compound	Inhibition
c1ccc(C(OCCC2CCN(Cc3cccc4cccnc34)CC2)c2ccccc2)cc1	99%
Cn1c(C2CC3CCC(C2)N3CC2CCC(NC(=O)/C=C/c3ccc(Cl)c(Cl)c3)CC2)nc2ccccc21 (stereo not drawn)	51%
CNCCCCCCc1ccc(CC(C)NCC(O)c2cccc(Cl)c2)cc1.Cl (stereo not drawn)	76%

[in] Give the observed Inhibition of C/C=C1/CN2CC[C@H]1C[C@H]2[C@H](O)c1ccnc2ccc(O)cc12 for Plasmodium falciparum.
[out] 11%

[in] Give the observed Inhibition of Cc1csc(NC2=NCCN2)n1.Cl for Plasmodium falciparum.
[out] 1%

[in] Give the observed Inhibition of CC(C)c1ccc(C=CC(=O)NC2CCC(CN3CCC(c4c[nH]c5ccccc45)CC3)CC2)cc1 (stereo not drawn) for Plasmodium falciparum.
[out] 85%

[in] Give the observed Inhibition of COc1ccc(CN(C2CC2)C(C)C(=O)c2[nH]c(C)c(C(C)=O)c2C)cc1 (stereo not drawn) for Plasmodium falciparum.
[out] 64%

[in] Give the observed Inhibition of CN(C)CCc1c[nH]c2ccc(C(=O)Nc3ccc(-c4ccncc4)cc3)cc12.O=C(O)CCC(=O)O for Plasmodium falciparum.
[out] 46%

[in] Give the observed Inhibition of CN1CCC(O)(c2ccc(Br)cc2)C(C(O)c2ccc(Br)cc2)C1.CS(=O)(=O)O (stereo not drawn) for Plasmodium falciparum.
[out] 99%

====

tested on: Plasmodium falciparum; assay: GSK_TCMDC: Inhibition of Plasmodium falciparum Dd2 in whole red blood cells, using parasite LDH activity as an index of growth. Test compounds present at 2uM; assay type: functional
measurementKind: Inhibition (%)
Just the number please, in %, no unit attached.

Answered examples (5):
compound	studyTarget	valueObserved
CC[C@H]1CN2CC[C@@H]1C[C@@H]2[C@@H](O)c1cc(-c2ccc(F)cc2)nc2ccc(OC)cc12.Cl	Plasmodium falciparum	64
CNC(=O)c1ccc2[nH]cc(C3CCN(CC4CCC(NC(=O)/C=C/c5ccc(Cl)c(Cl)c5)CC4)CC3)c2c1 (centres undefined)	Plasmodium falciparum	90
CC(=O)C1(c2ccccc2)CCN(CCC2(c3ccc(Cl)c(Cl)c3)CN(C(=O)Nc3cccc(C(F)(F)F)c3)CCO2)CC1 (centres undefined)	Plasmodium falciparum	66
CC(Cc1ccc(OCCCCOc2ccccc2)cc1)NCCc1ccccc1Cl (centres undefined)	Plasmodium falciparum	58
COC(=O)c1ccc(CC(C)NCC(O)c2cccc(C(F)(F)F)c2)c(Cl)c1 (centres undefined)	Plasmodium falciparum	98

[in] Tell me measured Inhibition for Oc1cc2c(cc1CN1CCN(Cc3ccccc3)CC1)CCC2 please.
[out] 92

[in] Tell me measured Inhibition for Br.CCOC(=O)c1ccc(CC(C)NCC(O)c2cccc(C(F)(F)F)c2)cc1 (centres undefined) please.
[out] 98

[in] Tell me measured Inhibition for Cl.OC(CNC1CCCCCC1)c1ccc(Cl)c(Cl)c1 (centres undefined) please.
[out] 98

[in] Tell me measured Inhibition for COc1ccccc1CNCC(O)c1cc(C(F)(F)F)ccc1C(F)(F)F (centres undefined) please.
[out] 95

[in] Tell me measured Inhibition for COc1cccc(C2(C)CCN(CCCCNC(=O)c3ccc(NC(=O)c4ccc(Cl)cc4)cc3)CC2)c1.Cl please.
[out] 72

[in] Tell me measured Inhibition for CN(c1cc(NC(=O)c2cccs2)ccn1)C1CCN(Cc2ccccc2)CC1.O=C(O)C(F)(F)F please.
[out] 87

[in] Tell me measured Inhibition for O=C(NC1CCC(N2CCC3(CC2)C(=O)NCN3c2ccccc2)CC1)c1cc2ccccc2[nH]1 (centres undefined) please.
[out] 40

[in] Tell me measured Inhibition for CCCCOC(C(=O)OCC1CCCN1C)(c1ccccc1)c1ccccc1 (centres undefined) please.
[out] 2

[in] Tell me measured Inhibition for COC(=O)c1ccc(CC(C)NCC(O)c2cccc(C(F)(F)F)c2)cc1C (centres undefined) please.
[out] 74

[in] Tell me measured Inhibition for C=C[C@H]1CN2CC[C@@H]1C[C@H]2[C@H](O)c1cc(-c2ccc(F)cc2)nc2ccc(OC)cc12.Cl please.
[out] 98

[in] Tell me measured Inhibition for O=C(COc1ccc(Cl)cc1)N1CCC(CN2CCC(c3c[nH]c4ccccc34)CC2)CC1 please.
[out] 13

[in] Tell me measured Inhibition for CCCc1ccc2c(c1O)CCC(N(CCC)CCC)C2.Cl (centres undefined) please.
[out] 23

[in] Tell me measured Inhibition for Cc1[nH]c2ccc(NS(C)(=O)=O)cc2c1C1CCN(CC2CCN(C(=O)/C=C/c3ccc(Cl)c(Cl)c3)CC2)CC1 please.
[out] 83

[in] Tell me measured Inhibition for CC(=O)Nc1ccc(CN2CCC(N(C)c3ccc(NC(=O)c4cccc(C)c4)cc3)CC2)cc1.O=C(O)C(F)(F)F please.
[out] 50
